MEASURED ON: T1, full-length PcrV.6xhis (Pseudomonas aeruginosa)
T1 construct: Recombinant full-length V-tip protein of the type 3 secretion system, His-tagged; also called full-length PcrV with a C-terminal hexahistidine tag
TEST METHOD NOTES: SPR (Biacore T200), mAb captured via anti-human Fc, PcrV injected, 37 C
MEASURED METRIC: t½ (min)
Write the value in min as a bare number.

Solved cases (3 shown):
BINDER	MEASURED METRIC	READOUT UNIT	READING
REGN3977 (antibody, V domains shown, also called Control III; REGN3977-Control III) VH: QVQLKQSGPGLVQPSQSLSITCTVSGFSLTSYGVHWVRQSPGKGLEWLGVIWSGGDTDYNAAFISRLSISKDNSKSQLFFKMNSLRATDTAIYYCARNRGDIYYDFTYAMDYWGQGTSVTVSS VL: DIQMTQSPASLSASVGETVTITCRASGNIQNYLAWYQQTQGKSPQLLVYSAKTLADGVPSRFSGSGSGTQYSLKINSLQPEDFGSYYCQHFWSTPYTFGGGTKLEIKR	t½	min	12.6
REGN3514 (antibody, V domains shown, also called Control I; Control I-REGN3514) VH: EMQLLESGGGLVQPGGSLRLSCAASGFTFSSYAMNWVRQAPGEGLEWVSAITISGITAYYTDSVKGRFTISRDNSKNTLYLQMNSLRAGDTAVYYCAKEEFLPGTHYYYGMDVWGQGTTVTVSS VL: AIQMTQSPSSLSASVGDRVTITCRASQGIRNDLGWYQQKPGKAPKLVIYSASTLQSGVPSRFSGSGSGTDFTLSISSLQPDDFATYYCLQDYNYPWTFGQGTKVEIKR	t½	min	59.1
H1H29332P (antibody, V domains shown) VH: EVQLVESGGDLVQPGGSLRLSCKASGFTFSTFAMNWVRQAPGRGLEWVSAIGASGYSTYYVDSMKGRFTISRDNSKNTLYLQMNSLGAEDTAVYYCAKEYSVSSNYYYGMDVWGQGTTVTVSS VL: DIQMTQSPSSLSASVGDRVTITCRASQTIRRYLNWYQQKAGKAPKLLIYAASSLLSGVPSRFSASGSGTDFTLTISSLQPEDFSTYYCQQTYSIPITFGQGTRLEIKR	t½	min	432

// query t½ value for entry H1H29329P (antibody, V domains shown) VH: EVQLVESGGGLVQPGGSLRLSCAASGFTFSDHEMNWVRQAPGKGLEWISYIGSGVVTMYYADSVRGRFTISRDNAKKTLYLQMNSLRAEDTAVYYCARDRGYYFGSEAFHYWGQGTLVTVSS VL: DIQMTQSPSTLSASVGDRVTITCRASQSISNWLAWYQQKPGKAPKLLIYKSSSLESGVPSRFSGSGSGTEFTLTISSLQPDDFATYYCQQYKSYSLTFGGGTKVEIKR 2.3
